Molecular target: human recombinant L1196M ALK kinase domain (amino acids 1093-1411) (Homo sapiens, UniProt Q9UM73, L1196M)
Construct: ALK kinase domain (amino acids 1093-1411); made in house
Assay: L1196M mutant ALK enzyme assay (microfluidic mobility shift)
Type: biochemical
Conditions: ATP 60 μM, 0.5 nM enzyme, competitive inhibition fit; read-out: L1196M ALK enzyme assay (Ki)
pKi: −log10 of the molar value.
Outcome: true (1) for pKi of at least 8; false (0) for anything lower.

Q: Given CC1Oc2cc(cnc2N)-c2c(C(C)(C)C)nn(C)c2CN(C)C(=O)c2ncccc21 (single isomer, unassigned) [Example 68] , state whether its pKi is at least 8.
Ans: false (0)

Q: Given CCN1Cc2c(c(C)nn2C)-c2cnc(N)c(c2)OC(C)c2cc(F)ccc2C1=O (single isomer, unassigned) [Example 10] , state whether its pKi is at least 8.
Ans: false (0)

Q: Given CC1Cc2cc(cnc2N)-c2c(nn(C)c2C#N)CN(C)C(=O)c2ccc(F)cc21 (single isomer, unassigned) [Example 64] , state whether its pKi is at least 8.
Ans: false (0)

Q: Given COc1nn(C)c2c1-c1cnc(N)c(c1)OC(C)c1cccnc1C(=O)N(C)C2 (single isomer, unassigned) [Example 66] , state whether its pKi is at least 8.
Ans: false (0)

Q: Given C[C@H]1Oc2cc(cnc2N)-c2c(nn(C)c2C#N)CN(C)C(=O)c2ccccc21 , state whether its pKi is at least 8.
Ans: true (1)

Q: Given Cc1nn(C)c2c1-c1cnc(N)c(c1)OC(C)c1cc(F)ccc1C(=O)N(C1CC1)C2 (single isomer, unassigned) [Example 12] , state whether its pKi is at least 8.
Ans: false (0)

====

Molecular target: human recombinant wild-type ALK kinase domain (amino acids 1093-1411) (Homo sapiens, UniProt Q9UM73)
Construct: ALK kinase domain (amino acids 1093-1411); made in house
Sequence (Q9UM73 1093-1411): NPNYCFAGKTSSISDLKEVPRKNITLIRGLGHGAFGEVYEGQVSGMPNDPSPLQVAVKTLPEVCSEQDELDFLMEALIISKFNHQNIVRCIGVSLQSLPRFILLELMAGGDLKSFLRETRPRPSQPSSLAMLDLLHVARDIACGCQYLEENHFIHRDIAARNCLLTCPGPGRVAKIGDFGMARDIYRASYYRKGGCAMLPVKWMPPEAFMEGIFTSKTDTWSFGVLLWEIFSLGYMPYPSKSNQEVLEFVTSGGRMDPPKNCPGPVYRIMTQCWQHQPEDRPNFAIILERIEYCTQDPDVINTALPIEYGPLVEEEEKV
Assay: Wild-type ALK enzyme assay (microfluidic mobility shift)
Format: biochemical
Conditions: ATP 60 μM, competitive inhibition fit, read-out: WT ALK enzyme assay (Ki)
Output schema: class label derived from Ki. Mapping: range 1: < 0.3 nM; range 2: ≥ 0.3 nM and < 10 nM; range 3: ≥ 10 nM

Q: Place this molecule in its band: CC1Oc2nc(cnc2N)-c2c(nn(C)c2C#N)Cn2ccnc2-c2ccc(F)cc21 (single isomer, unassigned) [Example 108]
Ans: range 1

Q: Place this molecule in its band: C[C@H]1Oc2nc(cnc2N)-c2cn(C)nc2CN(C)C(=O)c2ccc(F)cc21
Ans: range 1

Q: Place this molecule in its band: CC1Oc2cc(cnc2N)-c2c(cnn2C)CCCCCOc2ccc(F)cc21 (single isomer, unassigned) [Example 131]
Ans: range 3

Q: Place this molecule in its band: CCn1ncc2c1-c1cnc(N)c(n1)O[C@H](C)c1cc(F)ccc1C(=O)N(C)C2
Ans: range 1

Q: Place this molecule in its band: CC1Oc2nc(cnc2N)-c2c(nn(C)c2C#N)COCc2ccc(F)cc21 (stereo not drawn) [Example 104]
Ans: range 2

Q: Place this molecule in its band: C[C@@H]1Oc2nc(cnc2N)-c2cn(C)nc2CN(C)C(=O)c2ccc(F)cc21
Ans: range 3

Q: Place this molecule in its band: CCc1nsc2c1-c1cnc(N)c(c1)O[C@H](C)c1cc(F)ccc1C(=O)N(C)C2
Ans: range 2

Q: Place this molecule in its band: CN1Cc2nn(C)c(C#N)c2-c2cnc(N)c(c2)OC(CF)c2cc(F)ccc2C1=O (single isomer, unassigned) [Example 85]
Ans: range 1

Q: Place this molecule in its band: COc1nn(C)c2c1-c1cnc(N)c(c1)OC(C1CC1)c1cc(F)ccc1C(=O)N(C)C2 (single isomer, unassigned) [Example 26]
Ans: range 2

Q: Place this molecule in its band: CC1Cc2cc(cnc2N)-c2c(nn(C)c2C(N)=O)CN(C)C(=O)c2ccc(F)cc21 (stereo not drawn)
Ans: range 3

Q: Place this molecule in its band: C[C@H]1Oc2cc(cnc2N)-c2c(nnn2C2CC2)CN(C)C(=O)c2ccc(F)cc21
Ans: range 2

Q: Place this molecule in its band: C[C@H]1Oc2nc(cnc2N)-c2c(C#N)n[nH]c2CN(C)C(=O)c2ccc(F)cc21
Ans: range 2

Q: Place this molecule in its band: COc1nccc2c1-c1cnc(N)c(c1)OC(C)c1cc(F)ccc1C(=O)N(C)C2 (stereo not drawn)
Ans: range 3

====

Molecular target: human recombinant wild-type ALK kinase domain (amino acids 1093-1411) (Homo sapiens)
Construct: ALK kinase domain (amino acids 1093-1411); made in house
Test: Wild-type ALK enzyme assay (microfluidic mobility shift)
Assay type: biochemical
Settings: ATP 60 μM, competitive inhibition fit, read-out: WT ALK enzyme assay (Ki)
quantity: pKi
The scale used: pKi is minus the common logarithm of the concentration in molar units.

Q: Determine its reported pKi: Cn1nc2c(c1C#N)-c1cnc(N)c(c1)OCc1cc(F)ccc1COC2
Ans: 7.75

Q: Determine its reported pKi: CC1c2nn(C)c(C#N)c2-c2cnc(N)c(n2)OCc2cc(F)ccc2C(=O)N1C (stereo not shown) [Example 78]
Ans: 8.53

Q: Determine its reported pKi: COc1nn(C)c2c1-c1cnc(N)c(n1)OCc1cc(F)ccc1C(=O)N(C)C2C (single isomer, unassigned) [Example 122]
Ans: 9.57

Q: Determine its reported pKi: CC1c2nn(C)c(C#N)c2-c2cnc(N)c(n2)OCc2cc(F)ccc2C(=O)N1C (single isomer, unassigned) [Example 79]
Ans: 8.93

Q: Determine its reported pKi: CN1Cc2nn(C)c(C#N)c2-c2cnc(N)c(n2)OCc2cc(F)ccc2C1=O
Ans: 9.82

Q: Determine its reported pKi: CC1Cc2cc(cnc2N)-c2c(nn(C)c2C#N)CN(C)C(=O)c2ccc(F)cc21 (stereo not shown) [Example 61]
Ans: 9.82

Q: Determine its reported pKi: CC1Oc2nc(cnc2N)-c2c(nn(C)c2C#N)CN(C)C(=O)c2ccc(F)cc21 (single isomer, unassigned) [Example 33]
Ans: 6.00

====

Biological target: L1196M EML4-ALK (NIH-3T3 EML4-ALK v1 L1196M cells) (Homo sapiens, UniProt Q9UM73, L1196M)
Construct: expressed in transfected cells; the other entry of the earlier key: EML4 (Q9HC35, Echinoderm microtubule-associated protein-like 4)
Assay: Cellular phospho-ALK (Tyr1604) ELISA assay for L1196M EML4-ALK
Assay type: cell-based
Settings: NIH-3T3 EML4-ALK v1 L1196M cells, 1 hour, phospho-ALK (Tyr1604); read-out: ELISA assay for L1196M EML4-ALK (IC50)
For each record, write down the corresponding pIC50.
The scale used: pIC50 is minus the common logarithm of the concentration in molar units.

Q: Determine its reported pIC50: C[C@H]1Oc2cc(cnc2N)-c2c(nnn2C2CCC2)CN(C)C(=O)c2ccc(F)cc21 [Example 136]
Ans: 6.38

Q: Determine its reported pIC50: C[C@H]1Oc2cc(cnc2N)-c2c(nc3ccccn23)CN(C)C(=O)c2ccc(F)cc21 [Example 50]
Ans: 7.53

Q: Determine its reported pIC50: COc1nn(C)c2c1-c1cnc(N)c(n1)OCc1cc(F)ccc1C(=O)N(C)C2C (single isomer, unassigned) [Example 122]
Ans: 7.28

Q: Determine its reported pIC50: Cc1n[nH]c2c1-c1cnc(N)c(c1)OCc1cc(F)ccc1OCCC2 [Example 38]
Ans: 6.70

Q: Determine its reported pIC50: C[C@H]1Oc2nc(cnc2N)-c2c(noc2C#N)CN(C)C(=O)c2ccc(F)cc21 [Example 99]
Ans: 6.27

Q: Determine its reported pIC50: Cc1nn(C)c2c1-c1cnc(N)c(c1)OC(C)c1cc(F)ccc1C(=O)N(C1CC1)C2 (single isomer, unassigned) [Example 11]
Ans: 7.56

Q: Determine its reported pIC50: CN1Cc2nn(C)c(C#N)c2-c2cnc(N)c(c2)OC(CF)c2cc(F)ccc2C1=O (single isomer, unassigned) [Example 85]
Ans: 8.17

Q: Determine its reported pIC50: CCC1Oc2cc(cnc2N)-c2c(OC)nn(C)c2CN(C)C(=O)c2ccc(F)cc21 (single isomer, unassigned) [Example 23]
Ans: 8.00

Q: Determine its reported pIC50: COc1snc2c1-c1cnc(N)c(n1)O[C@H](C)c1cc(F)ccc1C(=O)N(C)C2 [Example 51]
Ans: 8.20

Q: Determine its reported pIC50: C[C@H]1Oc2nc(cnc2N)-c2cn(C)nc2CN(C)C(=O)c2ccc(F)cc21 [Example 56]
Ans: 7.46

Q: Determine its reported pIC50: CCc1onc2c1-c1cnc(N)c(c1)O[C@H](C)c1cc(F)ccc1C(=O)N(C)C2 [Example 82]
Ans: 6.74

Q: Determine its reported pIC50: COc1c2c(nn1C)CN(C)C(=O)c1ccc(F)cc1C(C)Oc1cc-2cnc1N (single isomer, unassigned) [Example 19]
Ans: 6.96

Q: Determine its reported pIC50: COc1noc2c1-c1cnc(N)c(c1)O[C@H](C)c1cc(F)ccc1C(=O)N(C)C2 [Example 111]
Ans: 7.49

Q: Determine its reported pIC50: C[C@H]1Oc2nc(cnc2N)-c2c(nn(C)c2C#N)CNC(=O)c2ccc(F)cc21 [Example 102]
Ans: 7.08

Q: Determine its reported pIC50: COc1nccc2c1-c1cnc(N)c(n1)OC(C)c1cc(F)ccc1C(=O)N(C)C2 (single isomer, unassigned) [Example 31]
Ans: 6.18
